# Test system: Pieris brassicae
# EXPERIMENTAL PROTOCOL: Antifeedant activity against fifth-instar larvae of Pieris brassicae on cabbage leaf discs at 5 mM measured 0 to 1.5 hr time period by no-choice bioassay
# Assay type: functional
# AFI listing for each entry below
Unit % implied. Number only.

MOLECULE: C1=C[C@@H]2CC(c3ccccc3)O[C@@H]2O1 (stereo partly drawn)
RECORDED MEASUREMENT: -1.7
--
MOLECULE: C1=C[C@@H]2CC(C3CCCCC3)O[C@@H]2O1 (stereo partly drawn)
RECORDED MEASUREMENT: -9.3

Endpoint output: AFI of OC1C[C@H]2CC(C3CCCCC3)O[C@H]2O1 (stereo partly drawn) . Value? 18.6

// next record CCCCCCC1C[C@H]2C=CO[C@H]2O1 (stereo partly drawn) 20.3

// next record C1CCC(C2C[C@@H]3CCO[C@@H]3O2)CC1 (stereo partly drawn) 6.7

// next record CC(=O)OC1C[C@H]2CC(C3CCCCC3)O[C@H]2O1 (stereo partly drawn) 16.7

// next record O=C1C[C@H]2CC(C3CCCCC3)O[C@H]2O1 (stereo partly drawn) 22.4

// next record CCOC1C[C@H]2CC(C3CCCCC3)O[C@H]2O1 (stereo partly drawn) 18.3
